- test: Acute toxicity (LD50) after oral administration
- Type: in vivo
- setup conditions: mouse, in vivo; oral, ddY type male mice; 95% confidence limit in parentheses; read-out: LD50 (95% Confidence Limit)
Assignment: determine reported LD50 for the given compounds.
Dear colleague, please return just the value in mg/kg, with no unit written.

Quick one: LD50 for CCOC(=O)c1ccccc1Nc1cccc(C(F)(F)F)c1 [II, reference compound] ?
1820

Lookup COC(=O)c1ccccc1Nc1cccc(C(F)(F)F)c1 [I, reference compound]
1620

Lookup CCCCOC(=O)c1ccccc1Nc1cccc(C(F)(F)F)c1
3100
